The reported numbers originate from patent US20240025919A1.

Known pIC50 of a selection of molecules
tested system: KRAS G12D (Homo sapiens (Human), UniProt P01116, G12D)
Sequence (P01116-2 other isoform, or with tags, fused parts or gaps G12D): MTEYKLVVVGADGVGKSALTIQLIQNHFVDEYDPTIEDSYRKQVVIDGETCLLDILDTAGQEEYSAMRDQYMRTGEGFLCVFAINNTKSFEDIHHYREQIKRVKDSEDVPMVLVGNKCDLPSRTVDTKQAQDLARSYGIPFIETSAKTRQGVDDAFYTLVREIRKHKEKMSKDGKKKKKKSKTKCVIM
experimental protocol: KRAS G12D LoEnz Biochemical Assay, BODIPY-GDP Exchange TR-FRET (SOS1-mediated nucleotide exchange)
test context: read-out: KRas (G12D) GDP HTRF IC50
Friendly reminder that pIC50 comes from taking -log10 of the concentration in mol/L.

Field: example entries. Status: answers known.
1) Cc1cc(N)c(F)c(-c2nc3c4c(ncnc4c2Cl)N2C[C@H]4CC[C@H](N4)[C@H]2[C@H](C)O3)c1C(F)(F)F (atropisomer, axis not shown) [Compound 95] : 7.58
2) Cc1c(F)c(N)cc(-c2nc3c4c(nc(OCC5(CN6CC7(COC7)C6)CC5)nc4c2F)N2C[C@H]4CC[C@H](N4)[C@H]2[C@H](C)O3)c1C(F)(F)F : 8.47
3) Cc1nc(N)cc(-c2nc3c4c(nc(OC[C@@]56CCCN5C[C@H](F)C6)nc4c2F)N2C[C@H]4CC[C@H](N4)[C@H]2[C@H](C)O3)c1CC(F)(F)F : 8.96
4) Cc1c(F)c(N)cc(-c2nc3c4c(nc(OCC56CCCN5CC(F)C6F)nc4c2F)N2C[C@H]4CC[C@H](N4)[C@H]2[C@H](C)O3)c1C(F)(F)F (single isomer, unassigned) [143 (isomer 2)] : 9.59
5) C[C@@H]1Oc2nc(-c3cc(N)c(F)cc3C(F)(F)F)c(F)c3nc(OC[C@@H]4CC[C@H]5COCCN54)nc(c23)N2C[C@H]3CC[C@H](N3)[C@@H]12 : 9.15

Ask | Entry C[C@@H]1Oc2nc(-c3cc(N)c(=O)n(C)c3C(F)(F)F)c(F)c3nc(OC[C@@]45CCCN4C[C@H](F)C5)nc(c23)N2C[C@H]3CC[C@H](N3)[C@@H]12 , system KRAS G12D (Homo sapiens (Human), UniProt P01116, G12D): what pIC50 was measured?
Reply | 8.70

Ask | Entry Cc1c(F)c(N)cc(-c2nc3c4c(nc(OC[C@@]56CCN(C)C5COC6)nc4c2F)N2C[C@H]4CC[C@H](N4)[C@H]2[C@H](C)O3)c1C(F)(F)F (single isomer, unassigned) [258 (isomer 1)] , system KRAS G12D (Homo sapiens (Human), UniProt P01116, G12D): what pIC50 was measured?
Reply | 10.05

Ask | Entry Cc1c(F)c(N)c(F)c(-c2nc3c4c(nc(OC[C@@]56CCCN5C[C@H](F)C6)nc4c2F)N2C[C@H]4CC[C@H](N4)[C@H]2[C@H](C)O3)c1C(F)(F)F , system KRAS G12D (Homo sapiens (Human), UniProt P01116, G12D): what pIC50 was measured?
Reply | 9.74

Ask | Entry Cc1c(F)c(N)cc(-c2nc3c4c(nc(OC[C@@H](F)CN5CC(CO)(CO)C5)nc4c2F)N2C[C@H]4CC[C@H](N4)[C@H]2[C@H](C)O3)c1C(F)(F)F , system KRAS G12D (Homo sapiens (Human), UniProt P01116, G12D): what pIC50 was measured?
Reply | 9.12

Ask | Entry C[C@@H]1Oc2nc(-c3cc(N)c(F)cc3C(C)(F)F)c(F)c3nc(OC[C@@]45CCCN4C[C@H](F)C5)nc(c23)N2C[C@H]3CC[C@H](N3)[C@@H]12 , system KRAS G12D (Homo sapiens (Human), UniProt P01116, G12D): what pIC50 was measured?
Reply | 8.59

Ask | Entry Cc1nc(N)c(F)c(-c2nc3c4c(nc(OCC5(CN6CCOCC6)CC5)nc4c2F)N2C[C@H]4CC[C@H](N4)[C@H]2[C@H](C)O3)c1C(F)(F)F , system KRAS G12D (Homo sapiens (Human), UniProt P01116, G12D): what pIC50 was measured?
Reply | 9.34
